tested_on: GAL4(DBD)-MR(LBD) (Homo sapiens (Human))
method_description: Mineralocorticoid receptor transactivation, UAS-bla HEK 293T CELLSENSOR reporter assay, agonist mode
Format: cell-based
test_conditions: 100 nM, control compound aldosterone
Let's look at some compounds and their measured % Activation at 100 nM.
attribute_measured: % Activation at 100 nM (%)

compound="CCCC(=O)O[C@]1(C(=O)CO)CC[C@H]2[C@@H]3CCC4=CC(=O)CC[C@]4(C)[C@H]3[C@@H](O)C[C@@]21C [drawing 24]" experimental_result=77
compound="C[C@]12CCC(=O)C=C1CC[C@@H]1[C@@H]2[C@@H](O)C[C@@]2(C)[C@H]1CC[C@]2(OC(=O)Cc1ccccc1)C(=O)CO [drawing 22]" experimental_result=81
compound="CC(C)C(=O)O[C@]1(C(=O)CO)CC[C@H]2[C@@H]3CCC4=CC(=O)CC[C@]4(C)[C@H]3[C@@H](O)C[C@@]21C [drawing 30]" experimental_result=62
compound="C[C@]12CCC(=O)C=C1CC[C@@H]1[C@@H]2[C@@H](O)C[C@@]2(C)[C@H]1CC[C@]2(OC(=O)c1ccccc1)C(=O)CO [drawing 28]" experimental_result=62
compound="CCCCCC(=O)O[C@]1(C(=O)CO)CC[C@H]2[C@@H]3CCC4=CC(=O)CC[C@]4(C)[C@H]3[C@@H](O)C[C@@]21C [drawing 27]" experimental_result=64
compound="CCCCCCC(=O)O[C@]1(C(=O)CO)CC[C@H]2[C@@H]3CCC4=CC(=O)CC[C@]4(C)[C@H]3[C@@H](O)C[C@@]21C [drawing 29]" experimental_result=56

###

tested_on: GAL4(DBD)-MR(LBD) (Homo sapiens (Human), UniProt P08235)
Sequence (P08235 726-964): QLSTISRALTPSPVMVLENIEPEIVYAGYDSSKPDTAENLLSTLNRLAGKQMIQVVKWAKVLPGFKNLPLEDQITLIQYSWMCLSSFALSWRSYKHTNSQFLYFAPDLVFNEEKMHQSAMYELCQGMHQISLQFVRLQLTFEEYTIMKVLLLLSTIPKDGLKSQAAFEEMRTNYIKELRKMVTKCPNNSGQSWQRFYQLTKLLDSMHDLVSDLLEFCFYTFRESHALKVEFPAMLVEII
method_description: Mineralocorticoid receptor transactivation, UAS-bla HEK 293T CELLSENSOR reporter assay, agonist mode
Assay type: cell-based
test_conditions: 16 hours incubation, maximum concentration 100 nM, read-out: EC50 (nM) MR (Table 4: mineralocorticoid receptor potency)
Listed here are molecules together with their documented EC50.
attribute_measured: EC50

molecule="CC(C)C(=O)O[C@]1(C(=O)CO)CC[C@H]2[C@@H]3CCC4=CC(=O)CC[C@]4(C)[C@H]3[C@@H](O)C[C@@]21C [drawing 30]" experimental_result="15.6 nM"
molecule="C[C@]12CCC(=O)C=C1CC[C@@H]1[C@@H]2[C@@H](O)C[C@@]2(C)[C@H]1CC[C@]2(O)C(=O)CO [drawing 23]" experimental_result="2.9 nM"
molecule="CCC(=O)O[C@]1(C(=O)CO)CC[C@H]2[C@@H]3CCC4=CC(=O)CC[C@]4(C)[C@H]3[C@@H](O)C[C@@]21C [drawing 25]" experimental_result="3.17 nM"
molecule="C[C@]12CCC(=O)C=C1CC[C@@H]1[C@@H]2[C@@H](O)C[C@@]2(C)[C@H]1CC[C@]2(OC(=O)C1CCCC1)C(=O)CO [drawing 31]" experimental_result="> 100 nM"
molecule="C[C@]12CCC(=O)C=C1CC[C@@H]1[C@@H]2[C@@H](O)C[C@@]2(C)[C@H]1CC[C@]2(OC(=O)Cc1ccccc1)C(=O)CO [drawing 22]" experimental_result="2.85 nM"
